System: HeLa cells
Assay: Compound screen by flow cytometry: HeLa cell count as surrogate readout of cell viability (z-scoreHeLa); also: test concentration or dose not given here
Format: cell-based, human
Conditions: compound screen, HeLa cell count, mean of 3 replicates
Output 1.0 for records whose z-scoreHeLa mean is lower than -0.5, 0.0 for records at or above -0.5.

# compound, tested_target, label_value
rows = [
    ("CS(=O)(=O)Cc1ccc(Nc2nccc(-c3c(-c4cccc(NC(=O)C5CCCCC5)c4)nn4ncccc34)n2)cc1 [GSK350559A]", "HeLa cells", 0.0),
    ("CNc1nc(-c2ccc3c(N)n[nH]c3c2)cc(N2C[C@@H](C(=O)NC3CCCCC3)OC[C@H]2C)n1 [GSK2375584A]", "HeLa cells", 0.0),
    ("CC(C)c1nc(-c2cccc(NS(=O)(=O)c3c(F)cccc3F)c2)c(-c2ccnc(Nc3ccc(N4CCOCC4)nc3)n2)s1 [GSK1723980B]", "HeLa cells", 1.0),
    ("Cn1cc(-c2cnc(N)c3c(-c4ccc5c(c4)CCN5C(=O)Cc4ccccc4)csc23)cn1 [GSK2593074A]", "HeLa cells", 1.0),
    ("Nc1ncc(-c2ccncc2)c2scc(-c3ccc4c(c3)CCN4C(=O)Cc3ccccc3)c12 [GSK2592465A]", "HeLa cells", 0.0),
    ("Cc1ccc(C)c(NC(=O)NCCNc2ccnc(Nc3ccc(F)cc3)n2)c1 [GSK1379878A]", "HeLa cells", 1.0),
    ("COc1ccc(CNC(=O)NC2CCN(c3ccnc(Nc4cc(OC)c(OC)c(OC)c4)n3)C2)cc1 (stereo not shown) [GSK1379748A]", "HeLa cells", 0.0),
    ("O=C(NCCNc1ccnc(Nc2ccc(F)cc2)n1)Nc1ccccc1F [GSK1379880A]", "HeLa cells", 0.0),
    ("O=C(Nc1n[nH]c2cc(-c3cccs3)ccc12)C1CC1", "HeLa cells", 1.0),
    ("COc1cc(Nc2ncc(-c3ccccc3)o2)cc(OC)c1OC [GW627512B]", "HeLa cells", 1.0),
    ("COc1ccc(Nc2nccc(NCCNC(=O)Nc3ccccc3F)n2)cc1 [GSK1379901A]", "HeLa cells", 0.0),
    ("Cc1cccc(-c2nc(Nc3ccc4[nH]ncc4c3)c3ccccc3n2)n1 [GW857175X]", "HeLa cells", 1.0),
    ("CN(C)C(=O)O[C@@H]1CN[C@@H](C#Cc2cc3ncnc(Nc4ccc(OCc5cccc(F)c5)c(Cl)c4)c3s2)C1 [GSK238063A]", "HeLa cells", 1.0),
    ("COc1cccc(-n2nc(C)c3c(N/N=C(\\C)c4ccncc4)ncnc32)c1 [GW809885X]", "HeLa cells", 0.0),
    ("CN(C)CCOc1ccc(-c2cc(-c3ccc(Cl)c(O)c3)c(-c3ccncc3)[nH]2)cc1.Cl.Cl", "HeLa cells", 0.0),
    ("CN(c1ccc2c(c1)nc(NCc1ccccc1)n2C)c1ccnc(Nc2ccc(CS(C)(=O)=O)cc2)n1 [GW811603A]", "HeLa cells", 0.0),
]

----------
Tested on: HeLa cells
Assay: Compound screen by flow cytometry: HeLa cell count as surrogate readout of cell viability (z-scoreHeLa); also: test concentration or dose not given here
Assay type: cell-based, human
Conditions: PKIS compound screen, mean of 3 replicates
Output yes (1) for records whose z-scoreHeLa mean is lower than 0.2, no (0) for records at or above 0.2.

# molecule, label_value
records = [
    ("Cc1ccc(S(=O)(=O)Nc2ccc(Nc3nccc(Nc4cccc5[nH]ncc45)n3)cc2)cc1 [GSK581271A]", "no (0)"),
    ("COc1cc(/C=N/Nc2ncnc3[nH]ncc23)ccc1O [GW578748X]", "no (0)"),
    ("COc1cccc(-n2ncc3c(N/N=C/c4ccncc4)ncnc32)c1 [GW784752X]", "yes (1)"),
    ("CN(C)S(=O)(=O)c1cc(-c2ccc3nccc(-c4cccc(S(N)(=O)=O)c4)c3c2)cnc1N [GSK1669921A]", "yes (1)"),
    ("COc1cc(Nc2nccc(N3CCC(NC(=O)C(C)c4ccc(Cl)cc4)C3)n2)cc(OC)c1OC (centres unmarked) [GSK1379757A]", "no (0)"),
    ("Cn1cc(-c2ccc3c(c2)CCN3C(=O)Cc2cccc(F)c2)c2c(N)ncnc21 [GSK2603358A]", "no (0)"),
    ("COc1cccc(C2=C(Nc3ccc(Cl)c(C(=O)O)c3)C(=O)NC2=O)c1", "no (0)"),
    ("O=C(NC1CCN(c2ccnc(Nc3ccc(F)cc3)n2)C1)c1cc2ccccc2s1 (centres unmarked) [GSK1379716A]", "yes (1)"),
    ("Cc1cc(Cl)cc2c1NC(=O)C2=NNc1ccc(S(N)(=O)=O)cc1 [GW279320X]", "no (0)"),
    ("CN1C(=O)C(Nc2ccccc2)=C(c2ccccc2)C1=O", "no (0)"),
    ("O=S(=O)(CCNCc1ccc(-c2ccc3ncnc(Nc4ccc(OCc5cccc(F)c5)c(Cl)c4)c3c2)o1)c1ccccc1 [GW633459A]", "no (0)"),
    ("Cc1nc(-c2ccccc2)n2nc(NCCCN3CCOCC3)ncc12 [GW874091X]", "yes (1)"),
    ("Cc1cc(NCC(c2ccccc2)c2ccccc2)nc(NCc2ccc(C(F)(F)F)cc2)n1 [GW497681X]", "yes (1)"),
    ("COc1cc(Nc2nccc(N3CCC(NC(=O)Nc4ccc5c(c4)OCO5)C3)n2)cc(OC)c1OC (centres unmarked) [GSK1379766A]", "yes (1)"),
    ("CC(C)c1nc(-c2ccc(F)c(NS(=O)(=O)c3c(F)cccc3F)c2)c(-c2ccnc(Nc3ccc(N4CCOCC4)nc3)n2)s1 [GSK1804250A]", "yes (1)"),
    ("COc1ccc(Nc2nccc(N3CCC(NC(=O)C(C)c4ccc(Cl)cc4)CC3)n2)cc1 (centres unmarked) [GSK1379812A]", "no (0)"),
    ("Cn1cncc1-c1cc2c(Nc3ccc(OCc4ccccc4)cc3)ncnc2cn1 [GW281179X]", "yes (1)"),
]

----------
System: HeLa cells
Assay: Compound screen by flow cytometry: HeLa cell count as surrogate readout of cell viability (z-scoreHeLa); also: test concentration or dose not given here
Type: cell-based, human
Settings: PKIS compound screen raw data, HeLa cell count, replicate 3
Output t for records whose cell count rep 3 is lower than 30000, f for records at or above 30000.

# molecule, tested_target, label_value
rows = [
    ("Fc1cc(Cl)ccc1Nc1ccnc2cc(-c3ccc(CN4CCSCC4)o3)ccc12 [GW560106X]", "HeLa cells", "f"),
    ("Cc1ccc(O)cc1Nc1ccnc2cc(-c3ccc(CN4CCCCC4)o3)ccc12 [GW557777X]", "HeLa cells", "f"),
    ("Cc1c(Cn2ccn3c(=O)cc(N4CCOCC4)nc23)cccc1C(F)(F)F [GSK2289044B]", "HeLa cells", "f"),
    ("OCCCNc1nccc(-c2c(-c3ccc(F)cc3)nn3cc(C(F)(F)F)ccc23)n1 [GW569293E]", "HeLa cells", "f"),
    ("CN(C)CCOc1ccc(-c2cc(-c3ccc(Cl)c(O)c3)c(-c3ccncc3)[nH]2)cc1.Cl.Cl [SB-684387-B]", "HeLa cells", "t"),
    ("CC(C(=O)NC1CCN(c2ccnc(Nc3ccc(F)cc3)n2)C1)c1ccc(Cl)cc1 (stereo not drawn) [GSK1379713A]", "HeLa cells", "t"),
    ("COc1cccc(CC(=O)N2CCc3cc(-c4cn(C)c5ncnc(N)c45)ccc32)c1 [GSK2608899A]", "HeLa cells", "t"),
    ("Cc1cc(O)cc(C)c1/C=C/c1cncc(C(N)=O)c1 [GW435821X]", "HeLa cells", "f"),
    ("O=c1cc(N2CCOCC2)nc2n(Cc3cccc4ccccc34)ccn12 [GSK2333389A]", "HeLa cells", "f"),
]

----------
Tested on: intracellular MRSA; also: test concentration or dose not given here
Assay type: cell-based, Staphylococcus aureus
Settings: compound screen, MRSA-infected HeLa cells, replicate 2
Attribute: z-scoreMRSA+ rep 2
quantity_name: z-scoreMRSA+ rep 2

# compound, quantity_name, reported_value
rows = [
    ("CN(c1ccc(NC(=O)Nc2cccc(Cl)c2)cc1)c1ccnc(N)n1 [GW830707A]", "z-scoreMRSA+ rep 2", -0.37),
    ("Cc1cccc(-c2nc(Nc3ccc4[nH]ncc4c3)c3ccccc3n2)n1 [GW857175X]", "z-scoreMRSA+ rep 2", -0.67),
    ("c1ccc(-c2n[nH]cc2-c2ccnc(-c3ccc(CNC4CCOCC4)cc3)c2)nc1 [GW709213X]", "z-scoreMRSA+ rep 2", 1.09),
    ("CN(C)CCOc1ccc(-c2cc(-c3ccc(Cl)c(O)c3)c(-c3ccncc3)[nH]2)cc1.Cl.Cl", "z-scoreMRSA+ rep 2", -2.84),
    ("CCn1cc(-c2ccnc3[nH]ccc23)c(-c2cccc(NC(=O)Nc3ccc(OCc4ccccc4)cc3)c2)n1 [GSK718429A]", "z-scoreMRSA+ rep 2", -0.17),
    ("COc1cc(Nc2ccnc3ccc(C(F)(F)F)cc23)cc(OC)c1OC [GW577382X]", "z-scoreMRSA+ rep 2", -1.17),
    ("CCn1c(-c2nonc2N)nc2c(C#CC(C)(C)O)nc(OC[C@H](N)c3ccccc3)cc21 [GSK943949A]", "z-scoreMRSA+ rep 2", -1.53),
    ("CC(=O)N1CCN(c2ccc(Nc3nccc(-c4sc(C(C)C)nc4-c4cccc(NS(=O)(=O)c5cccc(Cl)c5)c4)n3)cn2)CC1 [GSK1660437A]", "z-scoreMRSA+ rep 2", 0.36),
]
